Target: T1, CRBN, Q96SW2;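 note: pooled lentiviral library of zinc finger degron-EGFP fusions in mCherry-positive Jurkat cells, FACS-sorted after compound exposure, with degron abundance counted by next-generation sequencing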
T1 chain: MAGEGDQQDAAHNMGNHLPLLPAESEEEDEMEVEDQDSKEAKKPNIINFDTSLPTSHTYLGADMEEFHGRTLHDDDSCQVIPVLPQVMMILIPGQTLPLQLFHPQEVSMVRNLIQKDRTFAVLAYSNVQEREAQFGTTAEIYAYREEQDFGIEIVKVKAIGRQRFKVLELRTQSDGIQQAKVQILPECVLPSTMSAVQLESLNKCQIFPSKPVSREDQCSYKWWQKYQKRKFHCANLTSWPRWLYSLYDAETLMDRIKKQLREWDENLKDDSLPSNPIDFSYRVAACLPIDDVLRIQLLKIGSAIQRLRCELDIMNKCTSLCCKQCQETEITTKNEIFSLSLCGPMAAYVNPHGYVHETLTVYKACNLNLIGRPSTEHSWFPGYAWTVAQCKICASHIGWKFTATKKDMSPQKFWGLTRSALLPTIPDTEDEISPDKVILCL
Assay: log2 fold change of degron read counts, EGFP-low vs EGFP+ sorted cells (limma voom), compound-induced degradation; higher = more compound-induced degradation of the degron-EGFP fusion; degrons are variants of IKZF1/3 zinc finger 2; compound dose not given here
Conditions: Jurkat; 18 h; compound: compound 33 (diphenyl IMiD analogue)
The full ranking holds about 8,300 sequences; the median of “log2 fold change of degron read counts, EGFP-low vs EGFP+ sorted cells (limma voom), compound-induced degradation” is about -1.1, and the highest 2% start at about 3.2. This excerpt belongs to a sample that is enriched for the highest values.
PARAMETER MEASURED: log2 fold change of degron read counts

Recorded results for 6 sequences are shown here.
FGCEICGAQFTQKGNLLRHIKL [46F_47G_49E_50I_52G_53A_54Q_55F_67L_, Q9UKT9]: 1.18
FLCNQCGADFTQKGNLLRHIKL [46F_47L_49N_50Q_52G_53A_54D_55F_67L_, Q9UKT9]: -2.79
LRCNQCGFFCTQKGNLLRHIKL [46L_47R_49N_50Q_52G_53F_54F_55C_67L_, Q9UKT9]: -1.16
FFCEICGHTFTQKGNLLRHIKL [46F_47F_49E_50I_52G_53H_54T_55F_67L_, Q9UKT9]: -2.37
FICNICGAGFTQKGNLLRHIKL [46F_47I_49N_50I_52G_53A_54G_55F_67L_, Q9UKT9]: 1.13
FCCEICGAQFTQKGNLLRHIKL [46F_47C_49E_50I_52G_53A_54Q_55F_67L_, Q9UKT9]: 2.74

Shift focus to the following entry.
Task item: # return recorded log2 fold change of degron read counts for entry FLCEICGHCFTQKGNLLRHIKL [46F_47L_49E_50I_52G_53H_54C_55F_67L_, Q9UKT9]
Reply: -3.16

Cited source: the supplement of paper PMC12645437
